Where these numbers come from: patent US8389500B2

biological target: wild-type human cardiac sodium channel, hNav1.5 (late sodium current) (Homo sapiens, UniProt Q14524); construct: host or cells: HEK293; experiment: Late INa screening assay (PatchXpress whole cell patch clamp); assay type: cell-based; conditions: 10 μM test compound; HEK293 hNav1.5; late INa generated with 10 μM Tefluthrin (some experiments 50 nM ATX II); read-out: Late INa % blk (10 μM test cmpd)
Sequence (Q14524 whole entry): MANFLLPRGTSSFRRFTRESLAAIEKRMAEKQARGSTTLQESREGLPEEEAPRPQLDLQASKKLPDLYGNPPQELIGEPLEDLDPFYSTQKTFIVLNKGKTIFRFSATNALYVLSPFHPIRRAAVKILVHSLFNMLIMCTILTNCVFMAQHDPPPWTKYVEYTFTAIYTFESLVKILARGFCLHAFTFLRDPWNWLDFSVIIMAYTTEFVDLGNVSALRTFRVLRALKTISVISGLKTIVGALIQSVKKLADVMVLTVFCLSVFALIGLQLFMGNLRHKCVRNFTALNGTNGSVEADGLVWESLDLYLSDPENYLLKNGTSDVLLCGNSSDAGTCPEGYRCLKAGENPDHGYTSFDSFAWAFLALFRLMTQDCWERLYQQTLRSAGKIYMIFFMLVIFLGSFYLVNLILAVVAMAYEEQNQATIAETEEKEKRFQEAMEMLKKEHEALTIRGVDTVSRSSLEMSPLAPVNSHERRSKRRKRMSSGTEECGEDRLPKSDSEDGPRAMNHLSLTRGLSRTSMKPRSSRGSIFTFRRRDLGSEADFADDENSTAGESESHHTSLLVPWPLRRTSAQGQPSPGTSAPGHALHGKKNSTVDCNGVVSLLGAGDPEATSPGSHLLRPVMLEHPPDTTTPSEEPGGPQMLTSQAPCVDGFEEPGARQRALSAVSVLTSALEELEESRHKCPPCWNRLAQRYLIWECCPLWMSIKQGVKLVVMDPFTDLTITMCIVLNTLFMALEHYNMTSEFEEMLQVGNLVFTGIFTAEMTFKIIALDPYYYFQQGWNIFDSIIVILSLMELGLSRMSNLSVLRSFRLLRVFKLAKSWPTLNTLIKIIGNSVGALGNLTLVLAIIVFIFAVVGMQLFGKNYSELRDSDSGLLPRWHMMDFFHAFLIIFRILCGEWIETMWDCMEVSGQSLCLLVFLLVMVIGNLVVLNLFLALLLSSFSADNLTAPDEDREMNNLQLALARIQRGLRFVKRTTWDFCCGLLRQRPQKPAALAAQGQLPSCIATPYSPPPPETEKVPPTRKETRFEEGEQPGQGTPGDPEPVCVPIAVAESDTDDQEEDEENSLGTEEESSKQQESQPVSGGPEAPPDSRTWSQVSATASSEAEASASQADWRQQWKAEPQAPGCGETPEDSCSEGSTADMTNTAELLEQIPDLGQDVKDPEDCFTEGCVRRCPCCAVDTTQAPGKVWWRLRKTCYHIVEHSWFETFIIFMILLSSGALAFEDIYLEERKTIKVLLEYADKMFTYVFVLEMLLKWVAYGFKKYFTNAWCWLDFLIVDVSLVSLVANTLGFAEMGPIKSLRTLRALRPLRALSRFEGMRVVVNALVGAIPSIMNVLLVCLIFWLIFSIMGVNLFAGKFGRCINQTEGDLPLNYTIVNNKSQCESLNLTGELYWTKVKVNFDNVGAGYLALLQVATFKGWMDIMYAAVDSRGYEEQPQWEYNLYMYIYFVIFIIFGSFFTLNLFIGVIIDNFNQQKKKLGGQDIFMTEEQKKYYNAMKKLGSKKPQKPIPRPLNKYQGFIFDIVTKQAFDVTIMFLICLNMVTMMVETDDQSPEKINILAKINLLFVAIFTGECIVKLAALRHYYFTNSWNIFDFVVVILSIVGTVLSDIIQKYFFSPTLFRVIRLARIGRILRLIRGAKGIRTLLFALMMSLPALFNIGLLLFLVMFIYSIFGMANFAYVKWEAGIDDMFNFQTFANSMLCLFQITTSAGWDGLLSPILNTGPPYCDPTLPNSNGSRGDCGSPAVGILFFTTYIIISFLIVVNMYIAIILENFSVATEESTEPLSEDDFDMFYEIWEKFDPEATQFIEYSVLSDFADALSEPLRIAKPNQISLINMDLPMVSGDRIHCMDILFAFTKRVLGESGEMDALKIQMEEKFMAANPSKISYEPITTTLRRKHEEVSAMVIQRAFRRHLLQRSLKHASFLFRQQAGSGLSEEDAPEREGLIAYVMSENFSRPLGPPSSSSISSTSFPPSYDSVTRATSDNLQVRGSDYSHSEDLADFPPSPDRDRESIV
# inhibition at 10 µM per record follows
Reply numerically in %, unit not repeated.

Cc1cc(N(CC(=O)O)S(C)(=O)=O)ccc1-c1ccc(Oc2ccccc2)cc1 19.9
COc1ccc(NS(C)(=O)=O)cc1-c1ccc(Cl)c(F)c1 39.9
O=S(=O)(Nc1ccc(-c2cccc(OC(F)(F)F)c2)cc1)C1CC1 54.4
CN1CCN(CCN(c2ccc(-c3ccc(Cl)c(F)c3)c(Cl)c2)S(C)(=O)=O)CC1 48.8
COc1cc(N(Cc2ccc(C(=O)O)cc2)S(C)(=O)=O)ccc1-c1ccc(Oc2ccccc2)cc1 3.9
CS(=O)(=O)N(Cc1ccc(CC(=O)O)cc1)c1ccc(-c2ccc(Oc3ccccc3)cc2)c(Cl)c1 30.9
CS(=O)(=O)Nc1cccc(-c2ccc(Oc3ccc(C(=O)O)cc3)cc2)c1 20.8
O=S(=O)(Nc1ccc(-c2ccc(OC(F)(F)F)cc2)c(Cl)c1)C1CC1 61

Now for a further compound.
Any idea what its inhibition at 10 µM is? The compound is CCOC(=O)CN(c1ccc(-c2cccc(OC(F)(F)F)c2)c(OC)c1)S(C)(=O)=O
52.9

----------
molecular target: hERG potassium channel (Homo sapiens, UniProt Q12809); construct: expressed in transfected cells; host or cells: CHO (Chinese Hamster Ovary); assay: hERG screening assay (PatchXpress patch clamp, CHO cells); format: cell-based; settings: 1 μm test compound; hERG in CHO cells; peak current at −50 mV
Sequence (Q12809 whole entry): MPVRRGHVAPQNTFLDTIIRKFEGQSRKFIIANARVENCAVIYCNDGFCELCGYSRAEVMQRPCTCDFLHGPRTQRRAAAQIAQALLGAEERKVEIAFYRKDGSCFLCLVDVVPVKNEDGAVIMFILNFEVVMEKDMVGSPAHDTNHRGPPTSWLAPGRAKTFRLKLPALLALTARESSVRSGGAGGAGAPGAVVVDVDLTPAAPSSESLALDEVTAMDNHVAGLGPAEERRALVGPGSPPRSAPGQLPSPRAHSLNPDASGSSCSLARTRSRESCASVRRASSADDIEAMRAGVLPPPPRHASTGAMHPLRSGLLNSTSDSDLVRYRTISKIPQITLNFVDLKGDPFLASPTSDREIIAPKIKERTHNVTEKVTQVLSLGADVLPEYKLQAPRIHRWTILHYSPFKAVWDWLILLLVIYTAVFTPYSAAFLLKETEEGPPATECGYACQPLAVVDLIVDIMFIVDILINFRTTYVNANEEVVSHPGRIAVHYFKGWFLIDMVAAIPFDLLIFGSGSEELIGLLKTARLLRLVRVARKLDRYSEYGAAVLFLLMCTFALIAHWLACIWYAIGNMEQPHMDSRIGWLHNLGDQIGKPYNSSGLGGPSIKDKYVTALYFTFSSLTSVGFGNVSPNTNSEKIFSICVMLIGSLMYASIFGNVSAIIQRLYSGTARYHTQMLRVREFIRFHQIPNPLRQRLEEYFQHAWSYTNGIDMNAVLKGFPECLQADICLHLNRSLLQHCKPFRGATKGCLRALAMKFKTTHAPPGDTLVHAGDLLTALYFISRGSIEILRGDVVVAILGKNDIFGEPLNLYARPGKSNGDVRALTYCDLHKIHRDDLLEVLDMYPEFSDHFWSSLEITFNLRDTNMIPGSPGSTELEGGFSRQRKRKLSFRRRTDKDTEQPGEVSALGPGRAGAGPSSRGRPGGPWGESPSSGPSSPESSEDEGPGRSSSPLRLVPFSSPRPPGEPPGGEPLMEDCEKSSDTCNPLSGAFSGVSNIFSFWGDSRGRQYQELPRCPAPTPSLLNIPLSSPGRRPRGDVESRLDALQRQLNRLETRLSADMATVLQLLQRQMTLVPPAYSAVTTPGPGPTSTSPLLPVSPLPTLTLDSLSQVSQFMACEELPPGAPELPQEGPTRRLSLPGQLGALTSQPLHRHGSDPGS
# hERG Patch Clamp hERG % blk 1 μm per record follows

Any idea what its hERG Patch Clamp hERG % blk 1 μm is? The compound is CS(=O)(=O)Nc1ccc(-c2ccc(Cl)c(F)c2)c(Cl)c1
21%

----------
# inhibition at 10 µM per record follows
target: wild-type human cardiac sodium channel, hNav1.5 (late sodium current) (Homo sapiens, UniProt Q14524); construct: host or cells: HEK293; test: Late INa screening assay (PatchXpress whole cell patch clamp); type: cell-based; settings: 10 μM test compound; HEK293 hNav1.5; late INa generated with 10 μM Tefluthrin (some experiments 50 nM ATX II); read-out: Late INa % blk (10 μM test cmpd)
Reply numerically in %, unit not repeated.

Some molecules with known inhibition at 10 µM results, for comparison:
molecule	quantity.name	recorded.value
CS(=O)(=O)N(CC(=O)O)c1ccc(-c2ccc(C(F)(F)F)cc2)c(Cl)c1 [PT-111]	inhibition at 10 µM	14.6
CS(=O)(=O)Nc1ccc(-c2cccc(Cl)c2)c(Cl)c1 [PT-053]	inhibition at 10 µM	72.2
CS(=O)(=O)Nc1ccc(-c2ccc(C(F)(F)F)cc2)c(NC(=O)c2cccnc2)c1 [PT-165]	inhibition at 10 µM	-0.3
Cc1cc(N(Cc2ccc(C(=O)O)cc2)S(C)(=O)=O)ccc1-c1ccc(Oc2ccc(F)cc2)cc1 [PT-136]	inhibition at 10 µM	8.8
Cc1cc(NS(C)(=O)=O)ccc1-c1ccc(F)cc1 [PT-056]	inhibition at 10 µM	40.8

Any idea what its inhibition at 10 µM is? The molecule is Cc1cc(NS(=O)(=O)C2CC2)ccc1-c1ccc(OC(C)C)cc1 [PT-151]
32.6

Any idea what its inhibition at 10 µM is? The molecule is CS(=O)(=O)Nc1ccc(-c2ccc(Oc3ccccc3)cc2)cc1Cl [PT-034]
69.7

Any idea what its inhibition at 10 µM is? The molecule is CS(=O)(=O)Nc1ccc(-c2ccc(C(F)(F)F)cc2)cc1OC(F)(F)F [PT-075]
24.4

Any idea what its inhibition at 10 µM is? The molecule is CS(=O)(=O)Nc1ccc(-c2cccc(OC(F)(F)F)c2)c(Cl)c1 [PT-021]
77.5

----------
target: wild-type human cardiac sodium channel, hNav1.5 (late sodium current) (Homo sapiens, UniProt Q14524); construct: host or cells: HEK293; test: Late INa screening assay (PatchXpress whole cell patch clamp); assay type: cell-based; conditions: 10 μM test compound; HEK293 hNav1.5; late INa generated with 10 μM Tefluthrin (some experiments 50 nM ATX II); read-out: Late INa % blk (10 μM test cmpd)
# inhibition at 10 µM per record follows
Reply numerically in %, unit not repeated.

Some molecules with known inhibition at 10 µM results, for comparison:
molecule	unit.of.measurement	recorded.value
CS(=O)(=O)Nc1ccc(-c2cccc([N+](=O)[O-])c2)c(Cl)c1 [PT-054]	%	41.3
CS(=O)(=O)Nc1ccc(-c2ccc(Cl)c(C(F)(F)F)c2)c(Cl)c1 [PT-058]	%	78.5

Any idea what its inhibition at 10 µM is? The molecule is CS(=O)(=O)Nc1ccc(-c2ccccc2OC(F)(F)F)c(C(F)(F)F)c1 [PT-016]
45.8

Any idea what its inhibition at 10 µM is? The molecule is CS(=O)(=O)Nc1ccc(-c2ccc(Cl)c(F)c2)c(C(F)(F)F)c1 [PT-012]
52

Any idea what its inhibition at 10 µM is? The molecule is N#Cc1cc(NS(=O)(=O)C2CC2)ccc1-c1ccc(C(F)(F)F)cc1 [PT-130]
26

Any idea what its inhibition at 10 µM is? The molecule is CS(=O)(=O)Nc1ccc(-c2cccc(OC(F)(F)F)c2)cc1OC(F)(F)F [PT-100]
-0.7

Any idea what its inhibition at 10 µM is? The molecule is Cc1cc(NS(C)(=O)=O)ccc1-c1ccc(F)c(F)c1 [PT-057]
35.9

Any idea what its inhibition at 10 µM is? The molecule is CS(=O)(=O)N(Cc1ccc(-c2nnn[nH]2)cc1)c1ccc(-c2ccc(Oc3ccccc3)cc2)c(Cl)c1 [PT-135]
9.7

Any idea what its inhibition at 10 µM is? The molecule is CC(C)Oc1ccc(-c2ccc(NS(=O)(=O)C3CC3)c(C#N)c2)cc1 [PT-152]
29

Any idea what its inhibition at 10 µM is? The molecule is O=C(NCCO)c1cc(-c2ccc(C(F)(F)F)cc2)ccc1NS(=O)(=O)C1CC1 [PT-162]
-5.3

Any idea what its inhibition at 10 µM is? The molecule is CS(=O)(=O)Nc1ccc(-c2ccc(OC(F)(F)F)cc2)c(C(F)(F)F)c1 [PT-014]
50.5

----------
molecular target: wild-type human cardiac sodium channel, hNav1.5 (late sodium current) (Homo sapiens); construct: host or cells: HEK293; test: Late INa screening assay (PatchXpress whole cell patch clamp); format: cell-based; conditions: 10 μM test compound; HEK293 hNav1.5; late INa generated with 10 μM Tefluthrin (some experiments 50 nM ATX II); read-out: Late INa % blk (10 μM test cmpd)
# inhibition at 10 µM per record follows
Reply numerically in %, unit not repeated.

Some compounds with known inhibition at 10 µM results, for comparison:
CS(=O)(=O)Nc1ccc(-c2ccccc2F)c(Cl)c1 48.2
COc1ccc(-c2ccc(NS(C)(=O)=O)cc2Cl)cc1 27
COC(=O)c1cc(-c2ccc(C(F)(F)F)cc2)ccc1NS(C)(=O)=O 40.5
CS(=O)(=O)Nc1ccc(-c2ccc(Cl)c(F)c2)c(Cl)c1 69.5
CS(=O)(=O)Nc1ccc(-c2ccc(Cl)c(F)c2)c(F)c1 41.3
CS(=O)(=O)Nc1ccc(-c2ccc(F)c(Cl)c2)cc1 34.9
COc1cc(NS(C)(=O)=O)ccc1-c1ccc(OC(F)(F)F)cc1 20.9
O=S(=O)(Nc1ccc(-c2ccc(Oc3ccccc3)cc2)cc1)C1CC1 35.6
CS(=O)(=O)Nc1ccc(-c2ccc(C(F)(F)F)cc2)cc1C(=O)O 25.4

Now for a further compound.
// map CS(=O)(=O)Nc1ccc(-c2ccc(OC(F)(F)F)cc2)cc1 to recorded inhibition at 10 µM (system: wild-type human cardiac sodium channel, hNav1.5 (late sodium current) (Homo sapiens))
9.4

----------
Target: wild-type human cardiac sodium channel, hNav1.5 (late sodium current) (Homo sapiens)
Construct: host or cells: HEK293
Experiment: Late INa screening assay (PatchXpress whole cell patch clamp)
Type: cell-based
Conditions: 10 μM test compound; HEK293 hNav1.5; late INa generated with 10 μM Tefluthrin (some experiments 50 nM ATX II); read-out: Late INa % blk (10 μM test cmpd)
Procedure: The late sodium current (Late INa) and peak sodium current (Peak INa) assays are performed on an automated electrophysiology platform, PatchXpress 7000A (MDS Analytical Technologies, Sunnyvale, Calif.), which uses the whole cell patch clamp technique to measure currents through the cell membrane of up to 16 cells at a time. […]
So basically every entry gets a class from its inhibition at 10 µM, ranges being low band = under 30%, middle band = from 30% up to 60%, high band = 60% and over

Record excerpt, results attached:
compound	group.label
CCOC(=O)CN(c1ccc(-c2cccc(OC(F)(F)F)c2)c(Cl)c1)S(C)(=O)=O [PT-028]	high band
Cc1cc(N(Cc2ccc(C(=O)O)cc2)S(C)(=O)=O)ccc1-c1ccc(Oc2ccccc2)cc1 [PT-108]	middle band
CS(=O)(=O)N(CC(=O)O)c1ccc(-c2cccc(OC(F)(F)F)c2)c(Cl)c1 [PT-029]	low band
CS(=O)(=O)N(c1ccc(-c2ccc(Oc3ccccc3)cc2)cc1Cl)C1CCC[C@@H]1O (stereo partly drawn) [PT-066]	middle band
CCCS(=O)(=O)Nc1ccc(-c2ccc(Cl)c(F)c2)c(Cl)c1 [PT-027]	middle band

Exam item: assign CCOC(=O)CN(c1ccc(-c2ccc(Cl)c(F)c2)c(OC)c1)S(C)(=O)=O [PT-019] to the correct category.
middle band
